# subject_of_test: Tyrosine-protein kinase JAK3 (Homo sapiens)
# test_conditions: at 0.1 µM
experimental_endpoint: inhibition (%)
Express your answer in %, writing the number without its unit.

Ask: I have this compound here, COC(=O)Nc1nc2ccc(Oc3ccc(NC(=O)Nc4cccc(Cl)c4)cc3)cc2[nH]1 , and I need its recorded inhibition.
Reply: -0.87

Ask: Here is the next compound: CS(=O)(=O)CCNCc1coc(-c2ccc3ncnc(Nc4ccc(OCc5ccccc5)cc4)c3c2)c1
Reply: -1.53

Ask: Here is the next compound: COc1cc2c(cc1Nc1nc(Nc3ccsc3C(N)=O)c3cc[nH]c3n1)N(C(=O)CN(C)C)CCC2(C)C
Reply: 0.41

Ask: Here is the next compound: N#Cc1c(NC(=O)CN2CCOCC2)sc2c1CCCC2
Reply: -0.09

Ask: Here is the next compound: O=C(O[C@H]1CN[C@H](C#Cc2cc3ncnc(Nc4ccc(Cc5ccccc5)cc4)c3s2)C1)N1CCOCC1
Reply: -2.28

Ask: Here is the next compound: CCN(CC)S(=O)(=O)c1ccc(OC)c(Nc2ncc(-c3ccccc3)o2)c1
Reply: -0.47

Ask: Here is the next compound: CCCN1CCC(c2ccc(Nc3nc(Nc4cc(F)ccc4C(N)=O)c4cc[nH]c4n3)c(OC)c2)CC1
Reply: -0.92

---

# subject_of_test: Serine/threonine-protein kinase PLK1 (Homo sapiens) (UniProt P53350)
# Sequence (P53350 whole entry): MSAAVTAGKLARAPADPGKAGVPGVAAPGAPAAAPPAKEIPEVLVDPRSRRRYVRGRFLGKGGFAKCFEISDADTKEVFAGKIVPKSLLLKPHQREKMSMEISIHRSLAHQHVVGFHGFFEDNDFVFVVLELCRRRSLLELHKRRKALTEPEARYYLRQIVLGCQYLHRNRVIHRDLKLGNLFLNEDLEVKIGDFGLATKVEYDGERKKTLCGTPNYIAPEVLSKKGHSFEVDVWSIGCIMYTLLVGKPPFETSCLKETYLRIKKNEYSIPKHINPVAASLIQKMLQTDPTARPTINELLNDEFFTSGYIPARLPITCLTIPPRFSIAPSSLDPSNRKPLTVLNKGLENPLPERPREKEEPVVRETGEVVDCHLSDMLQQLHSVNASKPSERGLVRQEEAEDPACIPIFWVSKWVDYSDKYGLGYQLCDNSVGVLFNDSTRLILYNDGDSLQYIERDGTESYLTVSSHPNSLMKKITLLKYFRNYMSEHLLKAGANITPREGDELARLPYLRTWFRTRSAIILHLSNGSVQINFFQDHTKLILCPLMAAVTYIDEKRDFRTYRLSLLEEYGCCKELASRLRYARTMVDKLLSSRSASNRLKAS
# test_conditions: at 0.1 µM
experimental_endpoint: inhibition (%)
Express your answer in %, writing the number without its unit.

Ask: I have this compound here, O=C(O[C@H]1CN[C@H](C#Cc2cc3ncnc(Nc4ccc(Cc5ccccc5)cc4)c3s2)C1)N1CCOCC1 , and I need its recorded inhibition.
Reply: 1.59

Ask: Here is the next compound: CCOc1ccc2c(-c3ccnc(Nc4cccc(C(F)(F)F)c4)n3)cnn2n1
Reply: 0.64

Ask: Here is the next compound: CC(C)(CO)CNC(=O)c1ccc2c(c1)/C(=N/Nc1ccc(S(N)(=O)=O)cc1)C(=O)N2
Reply: 1.21

Ask: Here is the next compound: Fc1ccc(-c2nn3ncccc3c2-c2ccnc(Nc3ccc4c(c3)OCCO4)n2)cc1
Reply: 3.5

Ask: Here is the next compound: CCn1cc(-c2ccnc3[nH]ccc23)c(-c2cccc(NC(=O)Nc3ccc(OCc4ccccc4)cc3)c2)n1
Reply: -0.45

Ask: Here is the next compound: COC(=O)Nc1nc2ccc(S(=O)(=O)c3ccc(NC(=O)Nc4cc(C(F)(F)F)ccc4F)cc3)cc2[nH]1
Reply: 3.83

Ask: Here is the next compound: FC(F)(F)c1cccc(-c2nn3ncccc3c2-c2ccnc(Nc3ccc4c(c3)OCCO4)n2)c1
Reply: 1.26

Ask: Here is the next compound: CCCN(CCS(C)(=O)=O)Cc1ccc(-c2ccc3ncnc(Nc4ccc(OCc5cccc(F)c5)c(Cl)c4)c3c2)o1
Reply: 1.28

Ask: Here is the next compound: O=S(=O)(CCNCc1ccc(-c2ccc3ncnc(Nc4ccc(OCc5cccc(F)c5)c(Cl)c4)c3c2)o1)c1ccccc1
Reply: 6

Ask: Here is the next compound: COc1ccc(-c2nn3ncccc3c2-c2ccnc(Nc3ccc4c(c3)OCCO4)n2)cc1
Reply: 2.68

Ask: Here is the next compound: CCNC(=O)O[C@H]1CN[C@H](C#Cc2cc3ncnc(Nc4ccc(OCc5cccc(F)c5)c(Cl)c4)c3s2)C1
Reply: 3.22

Ask: Here is the next compound: Nc1nc(-c2cccc(Cl)c2)c(-c2ccc3ncccc3n2)s1
Reply: 3.47

Ask: Here is the next compound: COc1cccc(-c2c[nH]c3c(N/N=C/c4ccncc4)ncnc23)c1
Reply: 2.36

---

Record form. Attribute: inhibition. Fill in for each entry.
# subject_of_test: Rho-associated protein kinase 1 (Homo sapiens) (UniProt Q13464)
# Sequence (Q13464 2-1354 limits assumed): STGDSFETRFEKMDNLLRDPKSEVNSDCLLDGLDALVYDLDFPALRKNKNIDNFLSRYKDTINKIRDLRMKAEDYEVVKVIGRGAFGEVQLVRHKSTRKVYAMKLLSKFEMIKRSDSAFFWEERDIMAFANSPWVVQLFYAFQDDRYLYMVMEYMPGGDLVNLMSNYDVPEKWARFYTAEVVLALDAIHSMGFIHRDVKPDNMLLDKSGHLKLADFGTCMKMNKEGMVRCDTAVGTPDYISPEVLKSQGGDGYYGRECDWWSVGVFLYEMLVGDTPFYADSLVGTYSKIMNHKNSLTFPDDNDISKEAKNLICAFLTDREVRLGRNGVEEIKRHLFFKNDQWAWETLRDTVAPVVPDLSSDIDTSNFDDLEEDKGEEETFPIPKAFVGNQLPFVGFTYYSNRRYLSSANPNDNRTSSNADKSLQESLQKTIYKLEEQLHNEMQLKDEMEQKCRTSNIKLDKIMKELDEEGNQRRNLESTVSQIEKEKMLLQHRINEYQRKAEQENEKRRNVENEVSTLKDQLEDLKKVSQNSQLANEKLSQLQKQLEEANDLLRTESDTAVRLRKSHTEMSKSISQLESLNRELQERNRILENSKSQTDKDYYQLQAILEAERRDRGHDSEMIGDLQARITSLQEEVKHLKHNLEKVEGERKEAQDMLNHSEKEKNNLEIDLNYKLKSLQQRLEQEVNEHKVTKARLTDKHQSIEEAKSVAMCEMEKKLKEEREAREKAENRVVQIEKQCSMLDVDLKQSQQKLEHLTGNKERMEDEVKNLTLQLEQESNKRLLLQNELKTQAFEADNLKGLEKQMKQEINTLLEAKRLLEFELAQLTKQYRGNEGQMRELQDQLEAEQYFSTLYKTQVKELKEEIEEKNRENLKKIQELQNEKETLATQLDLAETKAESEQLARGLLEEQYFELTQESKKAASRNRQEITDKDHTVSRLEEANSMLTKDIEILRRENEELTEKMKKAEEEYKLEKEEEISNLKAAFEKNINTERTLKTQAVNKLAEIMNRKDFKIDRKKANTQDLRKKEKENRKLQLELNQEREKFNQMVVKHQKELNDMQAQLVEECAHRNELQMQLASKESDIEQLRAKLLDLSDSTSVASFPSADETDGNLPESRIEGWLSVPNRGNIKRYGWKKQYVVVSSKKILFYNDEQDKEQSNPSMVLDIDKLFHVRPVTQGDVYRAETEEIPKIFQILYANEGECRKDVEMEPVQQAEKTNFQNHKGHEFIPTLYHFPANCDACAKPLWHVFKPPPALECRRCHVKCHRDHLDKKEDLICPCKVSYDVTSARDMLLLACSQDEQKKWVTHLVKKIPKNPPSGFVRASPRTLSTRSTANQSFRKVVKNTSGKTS
# test_conditions: at 1 µM
Express your answer in %, writing the number without its unit.

Ask: I have this compound here, N#Cc1c(NC(=O)CN2CCOCC2)sc2c1CCCC2 , and I need its recorded inhibition.
Reply: 0.87

Ask: Here is the next compound: CCCN(CCS(C)(=O)=O)Cc1ccc(-c2ccc3ncnc(Nc4ccc(OCc5cccc(F)c5)c(Cl)c4)c3c2)o1
Reply: 0.05

Ask: Here is the next compound: COc1ccc(-c2cc3c(N)ncnc3o2)cc1
Reply: 1.74

Ask: Here is the next compound: CCn1c(-c2nonc2N)nc2cnc(Oc3cccc(NC(=O)c4ccc(N(C)C)cc4)c3)cc21
Reply: 87.1

Ask: Here is the next compound: CCOc1ccc2c(-c3ccnc(Nc4cccc(C(F)(F)F)c4)n3)cnn2n1
Reply: -1

Ask: Here is the next compound: COC(=O)c1sc(-n2cnc3cc(OC)c(OC)cc32)cc1OCc1ccccc1C(F)(F)F
Reply: 1.93

Ask: Here is the next compound: Cc1cccc2c1NC(=O)/C2=N\Nc1ccc(S(N)(=O)=O)cc1
Reply: 2.1

Ask: Here is the next compound: COc1cc(/C=N/Nc2ncnc3[nH]ncc23)ccc1O
Reply: 5.67

Ask: Here is the next compound: COc1ccc(-c2cc(-c3c[nH]nc3-c3ccccn3)ccn2)cc1
Reply: 4.3

Ask: Here is the next compound: COC(=O)Nc1nc2ccc(S(=O)(=O)c3ccc(NC(=O)Nc4cc(C(F)(F)F)ccc4F)cc3)cc2[nH]1
Reply: 2.05

Ask: Here is the next compound: COc1cccc(-n2ncc3c(N/N=C/c4ccc(F)cc4)ncnc32)c1
Reply: 1.49

Ask: Here is the next compound: COc1ccc2c(-c3ccnc(Nc4cccc(OC(F)(F)F)c4)n3)cnn2n1
Reply: 2.92

Ask: Here is the next compound: CCn1c(-c2nonc2N)nc2ccccc21
Reply: 36.6

Ask: Here is the next compound: CNC(=O)c1cccc(C#Cc2cncnc2Nc2ccc(OCc3cccc(F)c3)c(Cl)c2)c1
Reply: -0.1

Ask: Here is the next compound: c1cc(-c2cnn3nc(N4CCOCC4)ccc23)nc(NC2CC2)n1
Reply: 5.25

Ask: Here is the next compound: Nc1nc(-c2ccc(F)cc2)c(-c2ccc3ncccc3n2)s1
Reply: 2.11

Ask: Here is the next compound: Fc1ccc(-c2nn3ccccc3c2-c2ccncc2)cc1
Reply: 4.95

Ask: Here is the next compound: CCN1CCC(CC(=O)Nc2n[nH]c3nnc(-c4cccc(F)c4F)cc23)CC1
Reply: 0.43

Ask: Here is the next compound: NS(=O)(=O)c1ccc(Nc2ncc(-c3ccccc3)o2)cc1
Reply: 2.68

Ask: Here is the next compound: CC(=O)Nc1cccc(C#Cc2cncnc2Nc2ccc(OCc3cccc(F)c3)c(Cl)c2)c1
Reply: 0.67

Ask: Here is the next compound: Cc1ccc(O)cc1Nc1ccnc2cc(-c3ccccn3)ccc12
Reply: 3.92

Ask: Here is the next compound: NS(=O)(=O)c1ccc(N/N=C2\C(=O)Nc3ccc4ncccc4c32)cc1
Reply: 38.4

Ask: Here is the next compound: CNC(=O)c1cc(-c2ccc(F)cc2)cc(-c2ccc(S(=O)(=O)N3CCCC3)cc2)c1N
Reply: 1.95

Ask: Here is the next compound: Fc1ccc(-c2cc(-c3c[nH]nc3-c3ccccn3)ccn2)cc1
Reply: 1.54

Ask: Here is the next compound: Fc1cccc(COc2ccc(Nc3ncnc4sc(-c5ccco5)cc34)cc2Cl)c1
Reply: 2.72

Ask: Here is the next compound: FC(F)(F)c1cccc(-c2nn3ncccc3c2-c2ccnc(Nc3ccc4c(c3)OCCO4)n2)c1
Reply: 2.47

Ask: Here is the next compound: CCn1c(-c2nonc2N)nc2c(C#CC(C)(C)O)ncc(OC3CCNCC3)c21
Reply: 24.3

Ask: Here is the next compound: CN1CCC(n2cnc(-c3ccc(F)cc3)c2-c2ccnc(N)n2)CC1
Reply: 1.34

Ask: Here is the next compound: Cc1cccc(Nc2ncc(-c3ccccc3)o2)c1
Reply: 4.38

---

# subject_of_test: Macrophage colony-stimulating factor 1 receptor (Homo sapiens)
# test_conditions: at 0.1 µM
Record form. Attribute: inhibition. Fill in for each entry.
Express your answer in %, writing the number without its unit.

Ask: I have this compound here, CN1CCC(n2cnc(-c3ccc(F)cc3)c2-c2ccnc(N)n2)CC1 , and I need its recorded inhibition.
Reply: 2.19

Ask: Here is the next compound: c1ccc(-c2nc3n(c2-c2ccc4c(c2)OCO4)CCC3)nc1
Reply: 4.57

Ask: Here is the next compound: CCN1CCC(CC(=O)Nc2n[nH]c3nnc(-c4cccc(F)c4F)cc23)CC1
Reply: -1.12

Ask: Here is the next compound: Fc1ccc(-c2cc(-c3c[nH]nc3-c3ccccn3)ccn2)cc1
Reply: 0.08

Ask: Here is the next compound: c1cc(-c2cnn3nc(N4CCOCC4)ccc23)nc(NC2CC2)n1
Reply: 6.94

Ask: Here is the next compound: CCn1c(-c2nonc2N)nc2c(C#CC(C)(C)O)nc(OC[C@H](N)c3ccccc3)cc21
Reply: 3.84

Ask: Here is the next compound: CCn1c(-c2nonc2N)nc2cnc(Oc3cccc(NC(=O)c4ccc(N(C)C)cc4)c3)cc21
Reply: -0.02

Ask: Here is the next compound: Fc1ccc(-c2nn3ncccc3c2-c2ccnc(Nc3ccc4c(c3)OCCO4)n2)cc1
Reply: 14.4

Ask: Here is the next compound: CC(C)(CO)CNC(=O)c1ccc2c(c1)/C(=N/Nc1ccc(S(N)(=O)=O)cc1)C(=O)N2
Reply: -6.57
